- tested_on: Neuropilin-1 (Homo sapiens, UniProt O14786)
- Sequence (O14786 whole entry): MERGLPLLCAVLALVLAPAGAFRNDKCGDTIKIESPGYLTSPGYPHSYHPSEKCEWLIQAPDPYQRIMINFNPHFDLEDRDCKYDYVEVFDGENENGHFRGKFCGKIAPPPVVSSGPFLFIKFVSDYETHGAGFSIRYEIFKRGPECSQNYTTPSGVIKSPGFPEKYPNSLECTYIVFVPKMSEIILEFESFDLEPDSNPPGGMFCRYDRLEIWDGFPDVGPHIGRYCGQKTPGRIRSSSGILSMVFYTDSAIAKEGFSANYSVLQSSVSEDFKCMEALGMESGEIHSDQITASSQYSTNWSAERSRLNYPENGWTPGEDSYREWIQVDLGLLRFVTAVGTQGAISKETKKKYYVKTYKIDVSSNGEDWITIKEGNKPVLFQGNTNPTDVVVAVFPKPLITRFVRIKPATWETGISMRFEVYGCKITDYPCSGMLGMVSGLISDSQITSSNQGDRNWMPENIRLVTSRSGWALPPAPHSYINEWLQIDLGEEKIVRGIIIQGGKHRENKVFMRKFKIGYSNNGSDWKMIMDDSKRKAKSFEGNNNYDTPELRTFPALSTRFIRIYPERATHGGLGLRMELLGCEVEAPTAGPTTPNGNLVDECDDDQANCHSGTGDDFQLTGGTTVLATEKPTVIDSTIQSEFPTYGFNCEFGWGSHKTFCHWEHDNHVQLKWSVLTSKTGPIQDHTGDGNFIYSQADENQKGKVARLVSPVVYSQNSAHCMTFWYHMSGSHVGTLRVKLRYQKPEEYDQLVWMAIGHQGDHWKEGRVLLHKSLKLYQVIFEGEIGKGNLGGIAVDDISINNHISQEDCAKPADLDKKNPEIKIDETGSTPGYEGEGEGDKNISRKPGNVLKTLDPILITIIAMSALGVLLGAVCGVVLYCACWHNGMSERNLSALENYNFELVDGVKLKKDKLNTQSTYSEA
- experiment_description: Inhibition of human biotinylated VEGF-A165 binding to recombinant human NRP1 receptor at 100 uM after 2 hrs by chemiluminescence analysis relative to control
Square brackets hold non-standard residues; d marks the D form. Peptide text beside a SMILES is read from it. Hyp = O=C(O)[C@@H]1C[C@@H](O)CN1; hArg = N=C(N)NCCCC[C@H](N)C(=O)O; Tic = O=C(O)[C@@H]1Cc2ccccc2CN1; Dab = NCC[C@H](N)C(=O)O
Recorded inhibition by entry
Answer in %, number only, no unit symbol.

Solved entries:
molecule: N=C(N)NCCCC[C@H](N)C(=O)NCCCC[C@H](N)C(=O)N[C@@H](CCN)C(=O)N1Cc2ccccc2C[C@H]1C(=O)N[C@@H](CCCNC(=N)N)C(=O)O (H-K(hArg)[Dab][Tic]R-OH)
inhibition / %: 0

molecule: N=C(N)NCCCC[C@H](N)C(=O)NCCCC[C@H](N)C(=O)N1CCC[C@H]1C(=O)N1CCC[C@H]1C(=O)N[C@@H](CCCNC(=N)N)C(=O)O (H-K(hArg)PPR-OH)
inhibition / %: 77

Form: item N=C(N)NCCCC[C@H](N)C(=O)NCCCC[C@H](N)C(=O)N1C[C@H](O)C[C@H]1C(=O)N1C[C@H](O)C[C@H]1C(=O)N[C@@H](CCCNC(=N)N)C(=O)O (H-K(hArg)[Hyp][Hyp]R-OH) ; test system Neuropilin-1 (Homo sapiens, UniProt O14786); inhibition: 71.7

====

inhibition: recorded values
- tested_on: Neuropilin-1 (Homo sapiens, UniProt O14786)
- experiment_description: Inhibition of human biotinylated VEGF-A165 binding to recombinant human NRP1 receptor at 5 uM after 2 hrs by chemiluminescence analysis relative to control
Square brackets hold non-standard residues; d marks the D form. Peptide text beside a SMILES is read from it. Hyp = O=C(O)[C@@H]1C[C@@H](O)CN1; hArg = N=C(N)NCCCC[C@H](N)C(=O)O; ΔPro = O=C(O)[C@@H]1C=CCN1; Aze = O=C(O)[C@@H]1CCN1; Dab = NCC[C@H](N)C(=O)O
Output spec: scalar in %, unitless text.

Below, 3 molecules whose answers are already recorded.
molecule: N=C(N)NCCCC[C@H](N)C(=O)NCCCC[C@H](N)C(=O)N[C@@H](CCN)C(=O)N1CCC[C@H]1C(=O)N[C@@H](CCCNC(=N)N)C(=O)O (H-K(hArg)[Dab]PR-OH)
measured_property: inhibition
quantitative_readout: 43.7
//
molecule: N=C(N)NCCCC[C@H](N)C(=O)NCCCC[C@H](N)C(=O)N[C@@H](CCN)C(=O)N1CC[C@H]1C(=O)N[C@@H](CCCNC(=N)N)C(=O)O (H-K(hArg)[Dab][Aze]R-OH)
measured_property: inhibition
quantitative_readout: 30.1
//
molecule: N=C(N)NCCCC[C@H](N)C(=O)NCCCC[C@H](N)C(=O)N[C@@H](CCN)C(=O)N1C[C@H](O)C[C@H]1C(=O)N[C@@H](CCCNC(=N)N)C(=O)O (H-K(hArg)[Dab][Hyp]R-OH)
measured_property: inhibition
quantitative_readout: 36

Input N=C(N)NCCCC[C@H](N)C(=O)NCCCC[C@H](N)C(=O)N[C@@H](CCN)C(=O)N1CC=C[C@H]1C(=O)N[C@@H](CCCNC(=N)N)C(=O)O (H-K(hArg)[Dab][ΔPro]R-OH) . Output inhibition: 58

====

- tested_on: UniProtKB O14786
- experiment_description: Inhibition of human biotinylated VEGF-A165 binding to recombinant human NRP1 receptor at 25 uM after 2 hrs by chemiluminescence analysis relative to control
Square brackets hold non-standard residues; d marks the D form. Peptide text beside a SMILES is read from it. Oic = O=C(O)[C@@H]1C[C@@H]2CCCC[C@@H]2N1; Hyp = O=C(O)[C@@H]1C[C@@H](O)CN1; Pip(4-aza) = O=C(O)[C@@H]1CNCCN1; hArg = N=C(N)NCCCC[C@H](N)C(=O)O; Tic = O=C(O)[C@@H]1Cc2ccccc2CN1; ΔPro = O=C(O)[C@@H]1C=CCN1; Aze = O=C(O)[C@@H]1CCN1; Dab = NCC[C@H](N)C(=O)O
Where inhibition equals or exceeds 60%, the correct label is YES; where it does not, the label is NO.

molecule: N=C(N)NCCCC[C@H](N)C(=O)NCCCC[C@H](N)C(=O)N[C@@H](CCN)C(=O)N1CC=C[C@H]1C(=O)N[C@@H](CCCNC(=N)N)C(=O)O (H-K(hArg)[Dab][ΔPro]R-OH)
tested_on: UniProtKB O14786
class: YES
--
molecule: N=C(N)NCCCC[C@H](N)C(=O)NCCCC[C@H](N)C(=O)N1CCC[C@H]1C(=O)N1CCC[C@H]1C(=O)N[C@@H](CCCNC(=N)N)C(=O)O (H-K(hArg)PPR-OH)
tested_on: UniProtKB O14786
class: NO
--
molecule: N=C(N)NCCCC[C@H](N)C(=O)NCCCC[C@H](N)C(=O)N[C@@H](CCN)C(=O)N1[C@H](C(=O)N[C@@H](CCCNC(=N)N)C(=O)O)C[C@@H]2CCCC[C@@H]21 (H-K(hArg)[Dab][Oic]R-OH)
tested_on: UniProtKB O14786
class: YES
--
molecule: N=C(N)NCCCC[C@H](N)C(=O)NCCCC[C@H](N)C(=O)N[C@@H](CCN)C(=O)N1CCC[C@H]1C(=O)N[C@@H](CCCNC(=N)N)C(=O)O (H-K(hArg)[Dab]PR-OH)
tested_on: UniProtKB O14786
class: YES

Problem: Does N=C(N)NCCCC[C@H](N)C(=O)NCCCC[C@H](N)C(=O)N1Cc2ccccc2C[C@H]1C(=O)N1Cc2ccccc2C[C@H]1C(=O)N[C@@H](CCCNC(=N)N)C(=O)O (H-K(hArg)[Tic][Tic]R-OH) have a reported inhibition of at least 60%?
Solution: NO

Problem: Reported inhibition at or above 60%? N=C(N)NCCCC[C@H](N)C(=O)NCCCC[C@H](N)C(=O)N[C@@H](CCN)C(=O)N1Cc2ccccc2C[C@H]1C(=O)N[C@@H](CCCNC(=N)N)C(=O)O (H-K(hArg)[Dab][Tic]R-OH)
Solution: NO

Problem: Is reported inhibition greater than or equal to 60% here: N=C(N)NCCCC[C@H](N)C(=O)NCCCC[C@H](N)C(=O)N[C@@H](CCN)C(=O)N1C[C@H](O)C[C@H]1C(=O)N[C@@H](CCCNC(=N)N)C(=O)O (H-K(hArg)[Dab][Hyp]R-OH)
Solution: YES

Problem: Item N=C(N)NCCCC[C@H](N)C(=O)NCCCC[C@H](N)C(=O)N[C@@H](CCN)C(=O)N1CC[C@H]1C(=O)N[C@@H](CCCNC(=N)N)C(=O)O (H-K(hArg)[Dab][Aze]R-OH) with inhibition of 60% or above?
Solution: YES

Problem: Textbook exercise: given the entry N=C(N)NCCCC[C@H](N)C(=O)NCCCC[C@H](N)C(=O)N1CC[C@H]1C(=O)N1CC[C@H]1C(=O)N[C@@H](CCCNC(=N)N)C(=O)O (H-K(hArg)[Aze][Aze]R-OH) , state whether its inhibition is greater than or equal to 60%.
Solution: NO

Problem: Assess whether reported inhibition for N=C(N)NCCCC[C@H](N)C(=O)NCCCC[C@H](N)C(=O)N[C@@H](CCN)C(=O)N1CCNC[C@H]1C(=O)N[C@@H](CCCNC(=N)N)C(=O)O (H-K(hArg)[Dab][Pip(4-aza)]R-OH) sits at 60% or higher.
Solution: NO

====

- tested_on: Neuropilin-1 (Homo sapiens)
- experiment_description: Inhibition of human biotinylated VEGF-A165 binding to recombinant human NRP1 receptor at 10 uM after 2 hrs by chemiluminescence analysis relative to control
Square brackets hold non-standard residues; d marks the D form. Peptide text beside a SMILES is read from it. Oic = O=C(O)[C@@H]1C[C@@H]2CCCC[C@@H]2N1; Hyp = O=C(O)[C@@H]1C[C@@H](O)CN1; Pip(4-aza) = O=C(O)[C@@H]1CNCCN1; hArg = N=C(N)NCCCC[C@H](N)C(=O)O; Tic = O=C(O)[C@@H]1Cc2ccccc2CN1; ΔPro = O=C(O)[C@@H]1C=CCN1; Aze = O=C(O)[C@@H]1CCN1; Dab = NCC[C@H](N)C(=O)O
inhibition of 50% or higher: satisfied. Under 50%: not satisfied.

Here's what some known entries look like.
compound: N=C(N)NCCCC[C@H](N)C(=O)NCCCC[C@H](N)C(=O)N[C@@H](CCN)C(=O)N1Cc2ccccc2C[C@H]1C(=O)N[C@@H](CCCNC(=N)N)C(=O)O (H-K(hArg)[Dab][Tic]R-OH)
class: not satisfied
--
compound: N=C(N)NCCCC[C@H](N)C(=O)NCCCC[C@H](N)C(=O)N1Cc2ccccc2C[C@H]1C(=O)N1Cc2ccccc2C[C@H]1C(=O)N[C@@H](CCCNC(=N)N)C(=O)O (H-K(hArg)[Tic][Tic]R-OH)
class: not satisfied
--
compound: N=C(N)NCCCC[C@H](N)C(=O)NCCCC[C@H](N)C(=O)N1CCC[C@H]1C(=O)N1CCC[C@H]1C(=O)N[C@@H](CCCNC(=N)N)C(=O)O (H-K(hArg)PPR-OH)
class: not satisfied
--
compound: N=C(N)NCCCC[C@H](N)C(=O)NCCCC[C@H](N)C(=O)N[C@@H](CCN)C(=O)N1[C@H](C(=O)N[C@@H](CCCNC(=N)N)C(=O)O)C[C@@H]2CCCC[C@@H]21 (H-K(hArg)[Dab][Oic]R-OH)
class: satisfied
--
compound: N=C(N)NCCCC[C@H](N)C(=O)NCCCC[C@H](N)C(=O)N[C@@H](CCN)C(=O)N1C[C@H](O)C[C@H]1C(=O)N[C@@H](CCCNC(=N)N)C(=O)O (H-K(hArg)[Dab][Hyp]R-OH)
class: satisfied
--
compound: N=C(N)NCCCC[C@H](N)C(=O)NCCCC[C@H](N)C(=O)N1CC=C[C@H]1C(=O)N1CC=C[C@H]1C(=O)N[C@@H](CCCNC(=N)N)C(=O)O (H-K(hArg)[ΔPro][ΔPro]R-OH)
class: not satisfied

Problem: inhibition >= 50% for N=C(N)NCCCC[C@H](N)C(=O)NCCCC[C@H](N)C(=O)N1CC[C@H]1C(=O)N1CC[C@H]1C(=O)N[C@@H](CCCNC(=N)N)C(=O)O (H-K(hArg)[Aze][Aze]R-OH) ?
Solution: not satisfied

Problem: Has N=C(N)NCCCC[C@H](N)C(=O)NCCCC[C@H](N)C(=O)N1CCNC[C@H]1C(=O)N1CCNC[C@H]1C(=O)N[C@@H](CCCNC(=N)N)C(=O)O (H-K(hArg)[Pip(4-aza)][Pip(4-aza)]R-OH) a recorded inhibition greater than or equal to 50%?
Solution: not satisfied

Problem: Record N=C(N)NCCCC[C@H](N)C(=O)NCCCC[C@H](N)C(=O)N[C@@H](CCN)C(=O)N1CCC[C@H]1C(=O)N[C@@H](CCCNC(=N)N)C(=O)O (H-K(hArg)[Dab]PR-OH) ; criterion: inhibition no lower than 50%. Met?
Solution: satisfied

The origin of these recorded values is ChEMBL document CHEMBL4480373.
